- study-system: Uncharacterized protein FLJ45252 (Homo sapiens, UniProt Q6ZSR9); note: in the data inactive means no Kd found up to 30 µM
- Sequence (Q6ZSR9 whole entry): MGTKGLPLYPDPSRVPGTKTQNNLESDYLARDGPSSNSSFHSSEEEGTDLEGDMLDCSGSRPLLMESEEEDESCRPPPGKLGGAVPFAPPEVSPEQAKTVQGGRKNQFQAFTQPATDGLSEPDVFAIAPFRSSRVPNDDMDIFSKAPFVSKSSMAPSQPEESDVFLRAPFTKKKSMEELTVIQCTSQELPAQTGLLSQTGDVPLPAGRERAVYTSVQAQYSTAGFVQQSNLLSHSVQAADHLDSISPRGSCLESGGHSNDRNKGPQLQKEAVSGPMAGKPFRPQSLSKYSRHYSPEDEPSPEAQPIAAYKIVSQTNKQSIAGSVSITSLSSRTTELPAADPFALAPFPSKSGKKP
- conditions: read-out: Kd apparent; k-562, colo 205, sk-n-be(2) and mv-4-11; note: in the data inactive means no Kd found up to 30 µM
Activity calls are given as the source filed them. Cut-off read from the data, not from the text of the source: actives have a measured Kd and inactives only a lower limit.
readout-name: Kd

>>> value("Cc1csc(-c2nnc(Nc3ccc(Oc4ncccc4-c4ccnc(N)n4)cc3)c3ccccc23)c1")
"3.56 µM (active)"
>>> value("CNC(=O)c1cc(Oc2ccc(NC(=O)Nc3cc(C(C)(C)C)nn3-c3ccc4ncccc4c3)c(F)c2)ccn1")
"> 30 µM (inactive)"
>>> value("COc1cc(Nc2ncc3c(n2)-c2ccc(Cl)cc2C(c2c(F)cccc2OC)=NC3)ccc1C(=O)O")
"> 30 µM (inactive)"
>>> value("C=CC(=O)N1CCC[C@H](n2c(=O)n(-c3ccc(Oc4ccccc4)cc3)c3c(N)ncnc32)C1")
"> 30 µM (inactive)"
>>> value("Cc1[nH]c(/C=C2\\C(=O)Nc3ccccc32)c(C)c1CCC(=O)O [ORANTINIB]")
"1.18 µM (active)"
>>> value("Cc1cc(Nc2ncc(Cl)c(Nc3ccccc3S(=O)(=O)C(C)C)n2)c(OC(C)C)cc1C1CCNCC1")
"> 30 µM (inactive)"
>>> value("CO[C@H]1C[C@@H]2CC[C@@H](C)[C@@](O)(O2)C(=O)C(=O)N2CCCC[C@H]2C(=O)O[C@H]([C@H](C)C[C@@H]2CC[C@@H](OP(C)(C)=O)[C@H](OC)C2)CC(=O)[C@H](C)/C=C(\\C)[C@@H](O)[C@@H](OC)C(=O)[C@H](C)C[C@H](C)/C=C/C=C/C=C/1C")
"> 30 µM (inactive)"
>>> value("Nc1ncnc2c1c(-c1cccc(OCc3ccccc3)c1)cn2[C@H]1C[C@@H](CN2CCC2)C1")
"> 30 µM (inactive)"
>>> value("Cn1cc(-c2cnn3c(N)c(Br)c([C@@H]4CCCNC4)nc23)cn1")
"> 30 µM (inactive)"
>>> value("C[C@H]1CNCCCN1S(=O)(=O)c1cccc2cncc(F)c12")
"> 30 µM (inactive)"

###

- study-system: Serine/threonine-protein kinase TAO2 (Homo sapiens); note: in the data inactive means no Kd found up to 30 µM
- Sequence (Q9UL54 whole entry): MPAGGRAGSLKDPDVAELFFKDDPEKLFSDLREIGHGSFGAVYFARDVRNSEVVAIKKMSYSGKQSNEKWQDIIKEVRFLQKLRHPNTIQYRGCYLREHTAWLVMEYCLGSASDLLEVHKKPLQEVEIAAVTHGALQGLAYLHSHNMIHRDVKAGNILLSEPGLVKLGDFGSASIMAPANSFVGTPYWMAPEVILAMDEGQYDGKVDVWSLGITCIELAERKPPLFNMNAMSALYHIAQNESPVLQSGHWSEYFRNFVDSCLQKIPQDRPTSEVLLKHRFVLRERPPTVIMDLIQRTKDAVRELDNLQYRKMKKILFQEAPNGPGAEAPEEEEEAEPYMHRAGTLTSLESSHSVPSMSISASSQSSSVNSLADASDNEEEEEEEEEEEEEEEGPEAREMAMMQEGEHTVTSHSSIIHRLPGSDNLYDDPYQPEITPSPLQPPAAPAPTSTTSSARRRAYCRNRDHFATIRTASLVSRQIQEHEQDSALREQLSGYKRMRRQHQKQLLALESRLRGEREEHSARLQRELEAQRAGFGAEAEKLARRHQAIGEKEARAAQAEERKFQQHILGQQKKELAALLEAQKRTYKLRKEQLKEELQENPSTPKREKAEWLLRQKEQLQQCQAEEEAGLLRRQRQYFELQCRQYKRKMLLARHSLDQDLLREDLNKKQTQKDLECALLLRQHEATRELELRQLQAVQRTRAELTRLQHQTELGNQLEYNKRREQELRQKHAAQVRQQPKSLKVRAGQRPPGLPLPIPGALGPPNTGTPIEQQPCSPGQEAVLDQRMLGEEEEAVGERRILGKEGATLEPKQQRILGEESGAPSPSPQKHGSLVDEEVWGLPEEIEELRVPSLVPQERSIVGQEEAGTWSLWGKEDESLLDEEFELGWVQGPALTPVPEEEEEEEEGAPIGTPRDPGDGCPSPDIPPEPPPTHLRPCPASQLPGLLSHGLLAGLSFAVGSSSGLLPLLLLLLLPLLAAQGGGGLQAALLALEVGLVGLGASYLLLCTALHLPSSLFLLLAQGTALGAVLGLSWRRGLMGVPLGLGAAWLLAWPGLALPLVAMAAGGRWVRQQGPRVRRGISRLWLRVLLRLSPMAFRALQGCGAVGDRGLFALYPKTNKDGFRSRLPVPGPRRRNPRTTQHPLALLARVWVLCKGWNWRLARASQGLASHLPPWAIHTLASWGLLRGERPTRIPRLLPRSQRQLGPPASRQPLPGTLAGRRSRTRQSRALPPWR
Calls of active or inactive are those of the source.
Possible outcomes: 1 (yes) (active), 0 (no) (inactive)

>>> label("Cc1cccc(-c2nn3c(c2-c2ccnc4ccc(C(N)=O)cc24)CCC3)n1 [GALUNISERTIB]")
"0 (no)"
>>> label("Cc1cc(Nc2ncc(Cl)c(Nc3ccccc3S(=O)(=O)C(C)C)n2)c(OC(C)C)cc1C1CCNCC1 [CERITINIB]")
"0 (no)"
>>> label("N#CC1(c2ccc(NC(=O)c3cccnc3NCc3ccncc3)cc2)CCCC1 [RIVOCERANIB]")
"0 (no)"
>>> label("CNC(=O)c1nn(C)c2c1C(C)(C)Cc1cnc(Nc3ccc(N4CCN(C)CC4)cc3)nc1-2 [MILCICLIB]")
"1 (yes)"
>>> label("CC(=O)NCC(=O)N1[C@@H]2CC[C@H]1c1ccc(Nc3ncc(C(F)(F)F)c(NC4CCC4)n3)cc12 [PF-03814735]")
"1 (yes)"
>>> label("Cc1cnc(NC(=O)Nc2cc(Br)c(C)cc2OC[C@@H]2CNCCO2)cn1 [RABUSERTIB]")
"0 (no)"
>>> label("Nc1ncnc2c1c(-c1cccc(OCc3ccccc3)c1)cn2[C@H]1C[C@@H](CN2CCC2)C1 [AEW-541]")
"0 (no)"
>>> label("C=CC(=O)Nc1cc2c(Nc3ccc(F)c(Cl)c3)ncnc2cc1C#CC(C)(C)N1CCN(C)CC1 [AV-412 FREE BASE]")
"0 (no)"

###

- study-system: 5'-AMP-activated protein kinase catalytic subunit alpha-1 (Homo sapiens); note: in the data inactive means no Kd found up to 30 µM
- Sequence (Q13131 whole entry): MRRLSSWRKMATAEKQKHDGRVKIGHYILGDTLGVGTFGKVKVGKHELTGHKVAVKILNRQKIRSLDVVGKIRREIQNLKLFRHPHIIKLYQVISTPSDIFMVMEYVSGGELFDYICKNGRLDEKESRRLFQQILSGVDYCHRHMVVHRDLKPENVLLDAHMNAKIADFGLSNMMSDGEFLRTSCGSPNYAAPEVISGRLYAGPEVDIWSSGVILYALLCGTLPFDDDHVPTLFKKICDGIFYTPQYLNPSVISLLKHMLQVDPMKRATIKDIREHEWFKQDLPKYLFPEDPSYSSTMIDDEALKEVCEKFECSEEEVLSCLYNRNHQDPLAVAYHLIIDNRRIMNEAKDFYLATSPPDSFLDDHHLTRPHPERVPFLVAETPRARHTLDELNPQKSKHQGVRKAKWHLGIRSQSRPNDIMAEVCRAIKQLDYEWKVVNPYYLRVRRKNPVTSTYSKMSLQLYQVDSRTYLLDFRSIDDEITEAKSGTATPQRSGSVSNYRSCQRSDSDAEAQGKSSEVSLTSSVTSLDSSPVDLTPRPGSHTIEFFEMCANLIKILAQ
Active and inactive are the calls of the source.
Possible outcomes: TRUE for active, FALSE for inactive

>>> label("CC(C)c1cc(CNc2nc(Nc3cc(C4CC4)[nH]n3)cc(N3CCN(C)CC3)n2)on1")
"TRUE"
>>> label("Cc1csc(-c2nnc(Nc3ccc(Oc4ncccc4-c4ccnc(N)n4)cc3)c3ccccc23)c1")
"FALSE"
>>> label("Cc1cnc(NC(=O)Nc2cc(Br)c(C)cc2OC[C@@H]2CNCCO2)cn1")
"FALSE"
>>> label("COc1ccc(S(=O)(=O)N(C(C)=O)c2ccccc2/C=C/c2cc[n+]([O-])cc2)cc1")
"FALSE"
>>> label("C[C@H]1CNCCCN1S(=O)(=O)c1cccc2cncc(F)c12")
"TRUE"
>>> label("CN1C/C=C/CCOc2cccc(c2)-c2ccnc(n2)Nc2cccc(c2)C1")
"FALSE"
>>> label("CNC(=O)c1nn(C)c2c1C(C)(C)Cc1cnc(Nc3ccc(N4CCN(C)CC4)cc3)nc1-2")
"FALSE"

###

- study-system: Serine/threonine-protein kinase Nek9 (Homo sapiens); note: in the data inactive means no Kd found up to 30 µM
- Sequence (Q8TD19 whole entry): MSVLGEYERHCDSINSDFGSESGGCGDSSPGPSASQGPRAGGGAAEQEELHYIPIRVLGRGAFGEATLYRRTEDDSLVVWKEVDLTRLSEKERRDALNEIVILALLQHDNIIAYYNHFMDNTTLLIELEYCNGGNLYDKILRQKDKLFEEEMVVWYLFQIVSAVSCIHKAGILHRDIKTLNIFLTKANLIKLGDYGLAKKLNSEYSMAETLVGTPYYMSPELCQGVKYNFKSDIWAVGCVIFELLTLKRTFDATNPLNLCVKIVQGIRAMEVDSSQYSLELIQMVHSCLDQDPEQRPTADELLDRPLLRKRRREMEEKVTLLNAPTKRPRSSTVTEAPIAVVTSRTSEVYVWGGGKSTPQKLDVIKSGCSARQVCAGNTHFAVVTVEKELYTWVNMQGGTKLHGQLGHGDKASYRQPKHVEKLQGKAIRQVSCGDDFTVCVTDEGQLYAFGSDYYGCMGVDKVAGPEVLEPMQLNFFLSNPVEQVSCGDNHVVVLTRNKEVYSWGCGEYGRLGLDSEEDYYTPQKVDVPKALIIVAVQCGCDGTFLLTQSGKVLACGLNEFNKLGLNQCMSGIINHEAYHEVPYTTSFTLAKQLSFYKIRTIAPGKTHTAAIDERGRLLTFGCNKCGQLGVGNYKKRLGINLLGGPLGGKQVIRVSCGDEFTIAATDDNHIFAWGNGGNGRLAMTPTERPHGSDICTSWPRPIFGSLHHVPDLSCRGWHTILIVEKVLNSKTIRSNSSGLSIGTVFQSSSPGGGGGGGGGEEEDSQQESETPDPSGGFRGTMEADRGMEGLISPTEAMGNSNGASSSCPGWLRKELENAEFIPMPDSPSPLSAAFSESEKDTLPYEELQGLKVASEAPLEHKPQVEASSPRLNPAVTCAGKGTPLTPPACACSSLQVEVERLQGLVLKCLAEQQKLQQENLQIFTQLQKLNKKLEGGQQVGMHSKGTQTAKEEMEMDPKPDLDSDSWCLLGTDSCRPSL
Counter-ions that a name gives are not always drawn. Active and inactive are the calls of the source.
Possible outcomes: true = active, false = inactive

>>> label("CNC(=O)c1nn(C)c2c1C(C)(C)Cc1cnc(Nc3ccc(N4CCN(C)CC4)cc3)nc1-2")
"true"
>>> label("NC(=O)Nc1cc(-c2cccc(F)c2)sc1C(=O)N[C@H]1CCCNC1")
"false"
>>> label("COCC(=O)NC/C=C/c1ccc2ncnc(Nc3ccc(Oc4ccc(C)nc4)c(C)c3)c2c1")
"false"
>>> label("Cc1nc(NC(=O)N2CCC[C@H]2C(N)=O)sc1-c1ccnc(C(C)(C)C(F)(F)F)c1")
"false"
>>> label("CCOc1cc2ncc(C#N)c(Nc3ccc(F)c(Cl)c3)c2cc1NC(=O)/C=C/CN(C)C")
"false"
>>> label("CCS(=O)(=O)N1CCN(c2ccc(Nc3ncc(C(N)=O)c(NC4CC4)n3)cc2)CC1 [Cerdulatinib Hydrochloride]")
"false"
>>> label("CN1C/C=C/CCOc2cccc(c2)-c2ccnc(n2)Nc2cccc(c2)C1")
"false"
>>> label("COc1cc([C@@H]2c3cc4c(cc3[C@H](O)[C@H]3COC(=O)[C@@H]23)OCO4)cc(OC)c1OC")
"false"

###

- study-system: UniProtKB P30291
- Sequence (P30291 whole entry): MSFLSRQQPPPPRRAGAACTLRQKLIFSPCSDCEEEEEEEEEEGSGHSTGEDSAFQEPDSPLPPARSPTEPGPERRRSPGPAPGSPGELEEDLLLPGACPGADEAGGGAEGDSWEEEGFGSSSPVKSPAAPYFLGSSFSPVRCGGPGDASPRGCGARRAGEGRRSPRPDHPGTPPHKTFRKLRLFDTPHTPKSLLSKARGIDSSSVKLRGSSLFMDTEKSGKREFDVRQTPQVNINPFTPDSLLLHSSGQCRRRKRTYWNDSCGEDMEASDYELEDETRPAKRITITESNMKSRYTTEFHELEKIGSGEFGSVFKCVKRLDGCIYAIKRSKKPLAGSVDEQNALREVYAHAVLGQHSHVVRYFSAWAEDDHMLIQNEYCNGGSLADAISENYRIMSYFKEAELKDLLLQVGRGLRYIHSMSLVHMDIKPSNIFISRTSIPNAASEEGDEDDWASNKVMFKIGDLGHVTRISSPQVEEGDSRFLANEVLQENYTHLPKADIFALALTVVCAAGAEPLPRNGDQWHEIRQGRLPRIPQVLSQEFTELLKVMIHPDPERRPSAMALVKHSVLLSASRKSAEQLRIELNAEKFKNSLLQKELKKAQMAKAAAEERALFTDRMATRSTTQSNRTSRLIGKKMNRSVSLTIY
Calls of active or inactive are those of the source.
Possible outcomes: active, inactive

>>> label("Cc1nc2cc(-n3ncc(C(=O)c4cc5ccccc5[nH]4)c3N)ccc2[nH]1")
"inactive"
>>> label("C[C@@H](N)c1ccc(C(=O)Nc2ccnc3[nH]ccc23)cc1")
"inactive"
>>> label("C[C@H]1CNCCCN1S(=O)(=O)c1cccc2cncc(F)c12")
"inactive"
>>> label("CO[C@H]1C[C@@H]2CC[C@@H](C)[C@@](O)(O2)C(=O)C(=O)N2CCCC[C@H]2C(=O)O[C@H]([C@H](C)C[C@@H]2CC[C@@H](O)[C@H](OC)C2)CC(=O)[C@H](C)/C=C(\\C)[C@@H](O)[C@@H](OC)C(=O)[C@H](C)C[C@H](C)/C=C/C=C/C=C/1C")
"inactive"
>>> label("COCc1c(-c2ccc(NC(=O)Nc3cc(C(F)(F)F)ccc3F)c(F)c2)c2c(N)ncnn2c1CN1CCOCC1")
"inactive"
>>> label("COc1cc2c(Nc3ccc(Cl)c(Cl)c3F)ncnc2cc1OC[C@@H]1C[C@@H]2CN(C)C[C@@H]2C1")
"inactive"
>>> label("CC(=O)c1cnc2ccc(-c3cc(Cl)c(O)c(Cl)c3)nc2c1N[C@H]1CC[C@H](CN(C)C)CC1")
"inactive"
>>> label("Cc1cc(Nc2ncnc3ccc(NC4=NC(C)(C)CO4)cc23)ccc1Oc1ccn2ncnc2c1")
"inactive"
>>> label("N#CC1(c2ccc(NC(=O)c3cccnc3NCc3ccncc3)cc2)CCCC1")
"inactive"
>>> label("CNC(=O)c1cc(Oc2ccc(NC(=O)Nc3cc(C(C)(C)C)nn3-c3ccc4ncccc4c3)c(F)c2)ccn1")
"inactive"
>>> label("CC(C)(C)c1nc(-c2cccc(NS(=O)(=O)c3c(F)cccc3F)c2F)c(-c2ccnc(N)n2)s1")
"inactive"
>>> label("Cn1cc(-c2cnn3c(N)c(Br)c([C@@H]4CCCNC4)nc23)cn1")
"inactive"
>>> label("Cc1nc(Nc2n[nH]c3c2CN(C(=O)N[C@H](CN(C)C)c2ccccc2)C3(C)C)c2sccc2n1")
"active"
>>> label("Cn1cnc2c(F)c(Nc3ccc(Br)cc3F)c(C(=O)NOCCO)cc21")
"inactive"
>>> label("COc1c(OCCCN2CCOCC2)ccc2c1N=C(NC(=O)c1cnc(N)nc1)N1CCN=C21")
"inactive"
